// data source = the DeepSol protein solubility set

assay-explanation: soluble on expression in E. coli; label from the status in PepcDB or PDB records

query-sequence: MSWINRIFSKSPSSSTRKANVPEGVWTKCTACEQVLYSEELKRNLYVCPKCGHHMRIDARERLLNLLDEDSSQEIAADLEPKDILKFKDLKKYKDRINAAQKETGEKDALITMTGTLYNMPIVVAASNFAFMGGSMGSVVGAKFVKAAEKAMEMNCPFVCFSASGGARMQEALFSLMQMAKTSAVLAQMREKGVPFISVLTDPTLGGVSASFAMLGDLNIAEPKALIGFAGPRVIEQTVREKLPEGFQRSEFLLEKGAIDMIVKRSEMRQTLASVLSKLTNQPSPFVEPELISEDE
soluble on expression in E. coli: not soluble

query-sequence: MGSDKIHHHHHHMKTLKNLITSKHQTKASRFLGYLMPFDDFEKTLLQLKKEHFKAAHFVTAFRYSLEGKITEGFSDDGEPKGSSGMPMLSVLRREDLINIGLVSVRYFGGTLLGVGGLMKAYAKSALLCVENAQKEDALKDFVELETLSAHYSYKELDALQREIKKFSLQLSKKNFSNQSVEVEISGTRENLQAFLQQNKIN
soluble on expression in E. coli: not soluble

###

assay-explanation: soluble on expression in E. coli; label from the status in PepcDB or PDB records
measurement-name: soluble on expression in E. coli

query-sequence: SKKFSWNTSFNFTRNVNKVEKLENPYVYGSRDMVRNEEGYALYSFWMYNQLYVDKQTGQAVFEDVNGDGQITVADRKIMGNANPKFFGGLTNTFKYAGFDLNVFFVYQYGNKVVSFDRILNEGGGTKDNNRGIFEYNMNRWQKPGDDTDVPRVTSVGNNYGIEQNSRFLEDGSFIRLKTLTLGYTVPVDFTKKYSVQSVRFFVTGTNLLLFTKYKGPDPEAVHTSEQNARGIDVGTPPQPVSVQGGLTITL
value: not soluble
--
query-sequence: MVSKLVKIEPKFKLIEKDGKGEYFIAKYNILPENLLVYGPEQELKKINTIQTNVKEFDTRTLFVSDYLEVVPPNPLVMFEKSHVVVNIYLNKLEHHHHHH
value: not soluble
--
query-sequence: MMKALILAGGSGERFWPLSTPETPKQFLKLFGNKSLMRWTFERVLEEMDPKDVIVVTHKDYVERTKKELPELPDENIIAEPMKKNTAPACFIGTKLADDDEPVLVLPADHRIPDTKKFWKTVKKALDALEKYDGLFTFGIVPTRPETGYGYIEIGEELEEGVHKVAQFREKPDLETAKKFVESGRFLWNSGMFLWKAREFIEEVKVCEPSIYENLKDVDPRNFEELKKAYEKVPSISVDYAVMEKSKKVRVVKADFEWSDVGNWSSVREIEGYTEESDEVILVDSDRVFVKTHNKPIAVVGLSDVIVIDTPNGILICKEEYAQKVREVVKKLFRTS
value: soluble
--
query-sequence: MGSDKIHHHHHHMALDQDGIQKVQKISTGIERLDDLFYGGFDRNDNVVVRGNNFSQKRSFIYSFIKKSANSGIGVVLVDFDFPSEGIMADLVRSGTNTDMVHILDGFAKPFQISAPSNTEMLDDPGNIPSVLKQITSTVQKMDEYVFVMLSATRYLIAKDQNTDRFFVQLINMNRKRSLVSIYAVDDFVPEDRSEWFAYLMDSALHFRNAGARAYLRVLTLKRIRTKEWVRIYPEEGTFTLGSFNVERIK
value: not soluble
--
query-sequence: GMSVPQRPHQFVLTLSCPSAAGQVAAVVGLLDRHRCYVDELTVFDDDLSARFFVRCVFHATDDADALRVDALRREFEPIAERFRMQWAIHDVAARPKVLIMVSKLEHCLADLLFRWKMGELKMDIVGIVSNHPDFAPLAAQHGLPFRHFPITADTKAQQEAQWLDVFETSGAELVILARYMQVLSPEASARLANRAINIHHSFLPGFKGAKPYHQAHARGVKLIGATAHFVTDDLDEGPIIEQVVERVDHSYRPEQLLAVGRDVECITLARAVKAFIERRVFLNGDRTVVFQ
value: soluble
--
query-sequence: MENREPPLLPARWSSAYVSYWSPMLPDDQLTSGYCWFDYERDICRIDGLFNPWSERDTGYRLWMSEVGNAASGRTWKQKVAYGRERTALGEQLCERPLDDETGPFAELFLPRDVLRRLGARHIGRRVVLGREADGWRYQRPGKGPSTLYLDAASGTPLRMVTGDEASRASLRDFPNVSEAEIPDAVFAAKRLEHHHHHH
value: soluble
--
query-sequence: MSLSINIKAVTDDNRAAILDLHVSQNQLSYIESTKVCLEDAKECHYYKPVGLYYEGDLVGFAMYGLFPEYDEDNKNGRVWLDRFFIDERYQGKGLGKKMLKALIQHLAELYKCKRIYLSIFENNIHAIRLYQRFGFQFNGELDFNGEKVMVKELEGGSHHHHHH
value: soluble
--
query-sequence: MRLSILLLVAAHVANGLFGFGEKKTTQAPKISLGSEISIPHTDEDQDTGEIVIPFNDPSTTTTRRRTATTTGIPVISVGGIGLDRTRSTVDVRSFTTTINPRFTAATKRLPSSDRHSSSGCPNRIDAYTFGPDSDYAFYEQQVFKISNNRISDRTTLVEEFKDGPNQVNGALYDPEREILWLVDGRSVYGYKKDGSDNWKLQSVFPKELPSSIGFTPEAAVRWHNKHQLLLSNGGKFALYDEYWNKSLMTGRTESYFENLPDRVRGISTWNSQGHAHIYTQSLVFEYDSEMKKVTGDGVPLGDFWRC
value: not soluble
--
query-sequence: MMMDILMYLFETYVHSDADLQVDQDQLEDELLRAGFHQKDIYKALHWLEELAALQQTDAQTAIAKSAPTSMRIYAPEEIERLDLESRGFLLFLEHINVLTPETREMVIDRVMGLETDEFELDDLKWIILMVLFNVPGNENAYTVMEELLYSKEQGILH
value: not soluble
--
query-sequence: PKWQAVRAEYQRQRDPLHQFASQQNPEAQLQALQDKIRANPQNSEQWALLGEYYLWQNDYSNSLLAYRQALQLRGENAELYAALATVLYYQASQHMTAQTRAMIDKALALDSNEITALMLLASDAFMQANYAQAIELWQKVMDLNSPRINRTQLVESINMAKLLQRRSDLEHHHHHH
value: soluble
--
query-sequence: MGEYIRYQGEEALGLIETLGMVPAIYGADSMLKAANVQLISYENVGSTLVTVMVKGDVAAVQASVDAGSVAAAGIGKLTAHNVMPRPIRPIGDIVSVHAITDDAPAGDGSRPRAMGLIETFGIVYVLEAADAMLKTADVELIGYENVASGYISVLVQGDVAACQAAVAAGVKAVQAMGTDVYSSVVIPTPHPDVAKITARYALENLLP
value: not soluble
--
query-sequence: MKIGVVGLGLIGASLAGDLRRRGHYLIGVSRQQSTCEKAVERQLVDEAGQDLSLLQTAKIIFLCTPIQLILPTLEKLIPHLSPTAIVTDVASVKTAIAEPASQLWSGFIGGHPMAGTAAQGIDGAEENLFVNAPYVLTPTEYTDPEQLACLRSVLEPLGVKIYLCTPADHDQAVAWISHLPVMVSAALIQACAGEKDGDILKLAQNLASSGFRDTSRVGGGNPELGTMMATYNQRALLKSLQDYRQHLDQLITLISNQQWPELHRLLQQTNGDRDKYVE
value: soluble
--
query-sequence: MNHAQSLYPLIERALLCPVLEDKLALAERLHRDWRAGMLARLASPAPYPLPEPGRPERPELVHPARVPKRSLSTRRGHGALLHAIAHIEFNAVNLALDAAWRFRDMPDEFVDDWLKVAAEEAGHFRLLQGRLAELGFSYGDFPAHDGLWAMCRKTDRDAMVRMALVPRVLEARGLDVTPGIQRRLAGIGDHASVAVLDVILRDEVGHVLIGNRWFVRLCRERGLEPQATFRGLLEQHAMQLHPGDYNLDARAAAGFFADELEALARLTESVSDGRLEHHHHHH
value: soluble
--
query-sequence: MAAPAASGLSRQVRSFSTSVVRPFAKLVRPPVQVYGIEGRYATALYSAASKEKKLDQVEKELLRVGQLLKDPKVSLAVLNPYIKRTVKVKSLNDITKREKFSPLTANLMNLLAENGRLGNTQGIISAFSTIMSVHRGEVPCTVTTASPLDDAVLSELKTVLKSFLSPNQILKLEIKTDPSIMGGMIVRIGEKYVDMSAKSKIQKLSKAMREML
value: soluble
